Experiment: Oral absorption in C57BL/6J mouse at 30 mg/kg by LC-MS/MS analysis
Conditions: in vivo
Readout name: Fa (%)

Please review the following examples before continuing.
{"Structure smiles": "COC(=O)Nc1nc(C)c(S(=O)(=O)N2CCN(C[C@H](C)Nc3ncnc4c(-c5sc(C)nc5C)cccc34)CC2)s1", "Display unit": "%", "Endpoint value": 76}
{"Structure smiles": "COC(=O)Nc1nc(C)c(S(=O)(=O)N2CCN(C[C@H](C)Nc3ncnc4c(-c5cccnc5C)cccc34)CC2)s1", "Display unit": "%", "Endpoint value": 76}

a. COC(=O)Nc1nc(C)c(S(=O)(=O)N2CCN(C[C@H](C)Nc3ncnc4c(-c5c(C)noc5C)cccc34)CC2)s1
b. COC(=O)Nc1nc(C)c(S(=O)(=O)N2CCN(C[C@H](C)Nc3ncnc4c(-c5cccc(CN6CCCC6)c5)cccc34)CC2)s1
c. COC(=O)Nc1nc(C)c(S(=O)(=O)N2CCN(C[C@H](C)Nc3ncnc4c(-c5cccc(CN(C)C)c5)cccc34)CC2)s1
Challenge: Put the items in order so that reported Fa rises from first to last. Submit the labels in the order that the ranking request calls for.
Response given: b, c, a
